Entries annotated with measured pIC50
molecular target: DGKα (Homo sapiens, UniProt P23743); construct: His; assay: In vitro DGKα inhibition assay (ADP-Glo); details: His-tagged human recombinant enzyme, 0.1 nM DGKα, 50 μM ATP, 20 μM DLG, 90 minute incubation
Sequence (P23743 whole entry): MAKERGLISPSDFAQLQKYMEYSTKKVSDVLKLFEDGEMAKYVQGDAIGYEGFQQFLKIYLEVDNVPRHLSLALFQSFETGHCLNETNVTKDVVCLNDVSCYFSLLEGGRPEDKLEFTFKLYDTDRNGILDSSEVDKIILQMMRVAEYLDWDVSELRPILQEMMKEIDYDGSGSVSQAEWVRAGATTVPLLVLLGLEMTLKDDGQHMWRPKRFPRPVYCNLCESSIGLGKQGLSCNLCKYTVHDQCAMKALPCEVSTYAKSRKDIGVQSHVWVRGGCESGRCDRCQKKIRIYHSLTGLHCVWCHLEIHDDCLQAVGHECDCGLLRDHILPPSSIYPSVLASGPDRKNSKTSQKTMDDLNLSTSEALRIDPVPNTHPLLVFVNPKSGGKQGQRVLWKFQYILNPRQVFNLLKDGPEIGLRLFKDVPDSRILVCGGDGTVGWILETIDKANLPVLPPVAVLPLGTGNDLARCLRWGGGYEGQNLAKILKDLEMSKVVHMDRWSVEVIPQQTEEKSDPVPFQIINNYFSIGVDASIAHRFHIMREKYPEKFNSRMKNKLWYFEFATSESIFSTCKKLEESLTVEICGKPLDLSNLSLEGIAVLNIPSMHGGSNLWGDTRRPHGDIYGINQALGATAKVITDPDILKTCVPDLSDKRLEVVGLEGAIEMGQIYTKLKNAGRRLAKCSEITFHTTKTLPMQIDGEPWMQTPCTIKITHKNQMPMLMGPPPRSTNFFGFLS
pIC50: −log10 of the molar value.

Some molecules with known pIC50 results, for comparison:
INSERT INTO measurements (molecule, value_type, recorded_value) VALUES
  ('NC[C@@H]1CCCN(c2c(/C=C(\F)c3ccn(-c4ccnnc4)n3)ccc(Oc3ccccc3F)c2C(F)(F)F)C1 [Example 2]', 'pIC50', '≥ 7.70'),
  ('F/C(=C\c1ccc(Oc2ccccc2)c(C(F)(F)F)c1N1CCCC2(CCNCC2)C1)c1csc(N2CCC(F)(F)C2)n1 [Example 9]', 'pIC50', '6.70 to 7.70'),
  ('CCN1CCC2(CCCN(c3c(/C=C(\F)c4csc(-c5ccnnc5)n4)ccc(Oc4ccccc4)c3C(F)(F)F)C2)CC1 [Example 17]', 'pIC50', '≥ 7.70'),
  ('CC(C)(O)CN1CCC2(CCCN(c3c(/C=C(\F)c4csc(-c5ccnnc5)n4)ccc(Oc4ccccn4)c3C(F)(F)F)C2)CC1 [Example 12]', 'pIC50', '≥ 7.70'),
  ('F/C(=C\c1ccc(Oc2cccc(F)c2F)c(C(F)(F)F)c1N1CCCC2(CCNCC2)C1)c1csc(-c2cnsc2)n1 [Example 8]', 'pIC50', '≥ 7.70');

# query: pIC50 of entry COc1cc(F)ccc1Oc1ccc(/C=C(\F)c2csc(-c3ccnnc3)n2)c(N2CCC[C@@H](CN)C2)c1Cl [Example 3]
≥ 7.70

Again, but for F/C(=C\c1ccc(Oc2ccccc2)c(C(F)(F)F)c1N1CCOC2(CCNCC2)C1)c1csc(-c2ccnnc2)n1 [Example 5]
≥ 7.70

Again, but for F/C(=C\c1ccc(Oc2ccccn2)c(C(F)(F)F)c1N1CCCC2(CCN(CC3CC3)CC2)C1)c1csc(-c2ccnnc2)n1 [Example 14]
≥ 7.70

Again, but for F/C(=C\c1ccc(OC2CCC2)c(C(F)(F)F)c1N1CCOC2(CCNCC2)C1)c1csc(-c2ccnnc2)n1 [Example 7]
≥ 7.70

Again, but for F/C(=C\c1ccc(Oc2cccc(F)c2F)c(C(F)(F)F)c1N1CCCC2(CCN(CC3CC3)CC2)C1)c1csc(-c2ccnnc2)n1 [Example 11]
≥ 7.70

Again, but for CCN1CCC2(CC1)CN(c1c(/C=C(\F)c3csc(-c4ccnnc4)n3)ccc(Oc3ccccc3)c1C(F)(F)F)CCO2 [Example 6]
6.70 to 7.70

Again, but for F/C(=C\c1ccc(Oc2ccccc2)c(C(F)(F)F)c1N1CCCC2(CCN(CC3CC3)CC2)C1)c1csc(-c2ccnnc2)n1 [Example 18]
6.70 to 7.70

Again, but for CN(c1c(/C=C(\F)c2csc(-c3ccnnc3)n2)ccc(Oc2ccccc2F)c1C(F)(F)F)[C@H]1CCNC[C@H]1F [Example 4]
6.70 to 7.70

Again, but for F/C(=C\c1ccc(OC2CCCCC2)c(C(F)(F)F)c1N1CCCC2(CCN(CC3CC3)CC2)C1)c1ccn(-c2ccnnc2)n1 [Example 15]
6.70 to 7.70
